Field: LEUKOCYTE COUNT. Provide a value for each of the compounds that follow.
# Species on record: Rattus norvegicus
# experimentalDetails: DrugMatrix - Regimen: Daily Repeat
# Assay type: toxicity, organism-based, Sprague-Dawley
# Set-up: regimen Daily Repeat, gender Male, age 6-8 weeks
# conditionSet: in vivo, po, 0 mg/kg, 120 h, tissue Blood, route oral GAVAGE, dose level Control, time 5 day, vehicle 100 % WATER
Only the number, expressed in x10E3/uL, is required.

[ask] Entry "CCN[C@@H](C)Cc1cccc(C(F)(F)F)c1" : reported LEUKOCYTE COUNT = ?
[reply] 12.34

[ask] Entry "CNS(=O)(=O)Cc1ccc2[nH]cc(CCN(C)C)c2c1" : reported LEUKOCYTE COUNT = ?
[reply] 8.42

[ask] Entry Cc1c(N(C)CS(=O)(=O)[O-])c(=O)n(-c2ccccc2)n1C.[Na+] [DIPYRONE SODIUM] : reported LEUKOCYTE COUNT = ?
[reply] 9.78

[ask] Entry "OCCO" : reported LEUKOCYTE COUNT = ?
[reply] 11.32

[ask] Entry O=P1(N(CCCl)CCCl)NCCCO1 (stereo not given) [CYCLOPHOSPHAMIDE ANHYDROUS] : reported LEUKOCYTE COUNT = ?
[reply] 8.73
